Molecular target: human muscarinic M3 receptor (Homo sapiens)
Construct: expressed in transfected cells
Experiment: Alphascreen Surefire phospho-ERK1/2 functional assay, M3
Assay type: cell-based
Conditions: CHO cells stably expressing human M3; phospho-ERK1/2; read-out: pEC50 M3 (converted)
Method: ERK1/2 phosphorylation is a downstream consequence of both Gq/11 and Gi/o protein coupled receptor activation, making it highly suitable for the assessment of M1, M3 (Gq/11 coupled) and M2, M4 receptors (Gi/o coupled), rather than using different assay formats for different receptor subtypes. CHO cells stably expressing the human muscarinic M1, M2, M3 or M4 receptor were plated (25K/well) onto 96-well tissue culture plates in MEM-alpha+10% dialysed FBS. […]
outcome measure: EC50

> print(dat)
                                   molecule  outcome.measure   result
1  CCOC(=O)N1CCC2(CC(N3CCC(N(CC)C(=O)OC)CC3)C2)C1 (single isomer, unassigned) [2-39 Isomer 2]             EC50  > 20 µM
2  CCOC(=O)N1CCC2(CC(N3CCC(N(C(=O)C(F)(F)F)C4CC4)CC3)C2)C1 (single isomer, unassigned) [2-4 Isomer 2]             EC50  > 20 µM
3  CCOC(=O)N1CCC2(CC(N3CCC(N(CC)CC(F)F)CC3)C2)C1 (single isomer, unassigned) [2-46 Isomer 2]             EC50  > 20 µM
4  CCOC(=O)N1CCC2(CC(N3CCC(N(CC4CC4)C(C)=O)CC3)C2)C1 (single isomer, unassigned) [2-20 Isomer 2]             EC50  > 20 µM
5  CCOC(=O)N1CCC2(CC(N3CCC(N(CC(F)(F)F)C(=O)OC)CC3)C2)C1 (single isomer, unassigned) [2-42 Isomer 2]             EC50  > 20 µM
6  CCOC(=O)N1CCC2(CC(N3CCC(N(C(=O)OC)C(C)C)CC3)C2)C1 (single isomer, unassigned) [2-41 Isomer 2]             EC50  > 20 µM

====

Biological target: human muscarinic M3 receptor (Homo sapiens, UniProt P20309)
Construct: expressed in transfected cells
Sequence (P20309 whole entry): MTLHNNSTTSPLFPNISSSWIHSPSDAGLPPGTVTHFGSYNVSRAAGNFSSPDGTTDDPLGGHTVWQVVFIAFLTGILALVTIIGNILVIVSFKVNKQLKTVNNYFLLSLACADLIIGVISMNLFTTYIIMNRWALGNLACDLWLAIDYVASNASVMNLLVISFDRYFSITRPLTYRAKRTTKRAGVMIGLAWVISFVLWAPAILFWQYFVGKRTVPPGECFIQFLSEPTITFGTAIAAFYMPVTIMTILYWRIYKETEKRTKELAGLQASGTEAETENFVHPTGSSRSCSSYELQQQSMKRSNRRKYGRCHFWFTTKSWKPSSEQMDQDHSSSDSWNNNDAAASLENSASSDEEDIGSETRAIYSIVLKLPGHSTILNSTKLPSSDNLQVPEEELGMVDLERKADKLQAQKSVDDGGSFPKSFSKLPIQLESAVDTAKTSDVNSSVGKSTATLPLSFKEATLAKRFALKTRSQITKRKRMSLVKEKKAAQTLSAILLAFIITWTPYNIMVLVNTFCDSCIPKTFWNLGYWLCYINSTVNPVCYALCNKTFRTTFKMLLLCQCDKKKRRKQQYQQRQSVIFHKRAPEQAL
Assay: Alphascreen Surefire phospho-ERK1/2 functional assay, M3
Type: cell-based
Conditions: CHO, read-out: % Emax cf. ACh (M3), CHO cells stably expressing human M3; phospho-ERK1/2; relative to ACh
outcome measure: Emax (%)

> print(dat)
                                    molecule                             tested.target  unit.tag  quantitative.result
 1  CCOC(=O)N1CCC2(CC(N3CCC(N(CC)CCC#N)CC3)C2)C1 (single isomer, unassigned) [2-55 Isomer 2]  human muscarinic M3 receptor (Homo sapiens, UniProt P20309)         %                    5
 2  CCOC(=O)N1CCC2(CC(N3CCC(N(CCOC)C4CC4)CC3)C2)C1 (single isomer, unassigned) [2-8 Isomer 2]  human muscarinic M3 receptor (Homo sapiens, UniProt P20309)         %                    6
 3  CCOC(=O)N1CCC2(CC(N3CCC(N(CC)CC(F)F)CC3)C2)C1 (single isomer, unassigned) [2-46 Isomer 2]  human muscarinic M3 receptor (Homo sapiens, UniProt P20309)         %                   12
 4  CCOC(=O)N1CCC2(CC(N3CCC(N(CC(F)(F)F)C4COC4)CC3)C2)C1 (single isomer, unassigned) [2-54 Isomer 2]  human muscarinic M3 receptor (Homo sapiens, UniProt P20309)         %                   20
 5  CCOC(=O)N1CCC2(CC(N3CCC(N(CC)C(=O)OCC)CC3)C2)C1 (single isomer, unassigned) [2-40 Isomer 2]  human muscarinic M3 receptor (Homo sapiens, UniProt P20309)         %                    9
 6  CCN(C(C)=O)C1CCN(C2CCC3(C2)CN(C(=O)OC)C3)CC1 (single isomer, unassigned) [3-2 Isomer 2]  human muscarinic M3 receptor (Homo sapiens, UniProt P20309)         %                   37
 7  CCOC(=O)N1CCC2(CC(N3CCC(N(CC)CC(F)(F)F)CC3)C2)C1 (single isomer, unassigned) [2-7 Isomer 2]  human muscarinic M3 receptor (Homo sapiens, UniProt P20309)         %                   10
 8  CCOC(=O)N1CCC2(CC(N3CCC(N(CC)OC)CC3)C2)C1 (single isomer, unassigned) [2-57 Isomer 2]  human muscarinic M3 receptor (Homo sapiens, UniProt P20309)         %                   23
 9  CCOC(=O)N1CCC2(CC(N3CCC(N(CC(F)F)C(C)=O)CC3)C2)C1 (single isomer, unassigned) [2-24 Isomer 2]  human muscarinic M3 receptor (Homo sapiens, UniProt P20309)         %                   17
10  CCOC(=O)N1CCC2(CC(N3CCC(N(CC4(C)CCC4)C(C)=O)CC3)C2)C1 (single isomer, unassigned) [Example 2-21 Isomer 2]  human muscarinic M3 receptor (Homo sapiens, UniProt P20309)         %                   22
11  CCOC(=O)N1CCC2(CC(N3CCC(N(C(C)=O)C4CC4)CC3)C2)C1 (single isomer, unassigned) [2-3 Isomer 2]  human muscarinic M3 receptor (Homo sapiens, UniProt P20309)         %                    6
12  CCOC(=O)N1CCC2(CC(N3CCC(N(OC)C(C)=O)CC3)C2)C1 (single isomer, unassigned) [2-32 Isomer 2]  human muscarinic M3 receptor (Homo sapiens, UniProt P20309)         %                    5
13  CCOC(=O)N1CCC2(CC(N3CCC(N(CCF)Cc4cnco4)CC3)C2)C1 (single isomer, unassigned) [2-61 Isomer 2]  human muscarinic M3 receptor (Homo sapiens, UniProt P20309)         %                   65
